target.under.test: Recombinant human Factor IX (rhFIX, Genetics Institute) (human, UniProt P00740 47-461)
Sequence (P00740 47-461 limits assumed): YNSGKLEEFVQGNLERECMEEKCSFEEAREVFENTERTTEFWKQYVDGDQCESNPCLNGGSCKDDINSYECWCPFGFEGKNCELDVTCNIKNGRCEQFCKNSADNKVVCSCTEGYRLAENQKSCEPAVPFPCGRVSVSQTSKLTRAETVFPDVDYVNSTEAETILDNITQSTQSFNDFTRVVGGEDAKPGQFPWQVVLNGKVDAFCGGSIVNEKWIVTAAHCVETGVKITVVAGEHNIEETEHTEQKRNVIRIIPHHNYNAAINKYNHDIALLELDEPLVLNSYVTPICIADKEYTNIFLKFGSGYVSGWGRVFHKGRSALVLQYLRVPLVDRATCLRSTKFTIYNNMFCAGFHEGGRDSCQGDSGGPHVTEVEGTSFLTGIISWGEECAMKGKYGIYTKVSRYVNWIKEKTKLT
measurement.notes: SPR (BIAcore), calculated from kinetics
observable: pKd
Hey, just a heads up that pKd is the negative log base 10 of the concentration in molar.

Return reported pKd. Input binder: humanized anti-human Factor IX monoclonal antibody SB 249416 (antibody, human IgG1, V domains shown, Human IgG1 and kappa constant regions from the vectors; also called F9HZHC 1-1 / F9HZLC 1-2) VH: QVQLVQSGSELKKPGASVKVSCKASGYTFTNYGMNWVRQAPGQGLKWMGWINTRNGKSTYVDDFKGRFVFSLDSSVSTAYLQISSLKADDTAVYYCTREGNMDGYFPFTYWGQGTLVTVSS VL: EIVLTQSPATLSLSPGERATLSCRASSSVNYMHWYQQRPGQAPKPWIYATSNLASGVPARFSGSGSGTDYTLTISSLEPEDFAVYYCQQWSINPRTFGGGTKVEIKR
9.10

Return reported pKd. Input binder: humanized anti-human Factor IX monoclonal antibody SB 257732 (antibody, human IgG1, V domains shown, Human IgG1 and kappa constant regions from the vectors; also called F9HZHC 3-0 / F9HZLC 3-0) VH: QIQLVQSGSELKKPGASVKVSCKASGYTFTNYGMNWVRQAPGQGLEWMGWINTRNGKSTYVDDFKGRFVFSLDTSVSTAYLQISSLKAEDTAVYFCTREGNMDGYFPFTYWGQGTLVTVSS VL: QIVLTQSPSSLSASVGDRVTITCRASSSVNYMHWYQQKPGKAPKPWIYATSNLASGVPSRFSGSGSGTDYTLTISSLQPEDFATYYCQQWSINPRTFGGGTKLEIKR
8.82

Return reported pKd. Input binder: humanized anti-human Factor IX monoclonal antibody SB 257731 (antibody, human IgG1, V domains shown, Human IgG1 and kappa constant regions from the vectors; also called F9HZHC 1-1 / F9HZLC 1-3) VH: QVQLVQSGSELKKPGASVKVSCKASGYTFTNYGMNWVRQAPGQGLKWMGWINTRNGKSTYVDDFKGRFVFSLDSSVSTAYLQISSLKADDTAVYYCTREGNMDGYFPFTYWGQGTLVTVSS VL: QIVLTQSPATLSLSPGERATLSCRASSSVNYMHWYQQRPGQAPKPWIYATSNLASGVPARFSGSGSGTDYTLTISSLEPEDFAVYYCQQWSINPRTFGGGTKVEIK
8.96

Return reported pKd. Input binder: mouse-human chimeric anti-Factor IX monoclonal antibody chαFIX (antibody, V domains shown, BC2 variable regions with human constant regions; also called Chf9; F9CHHC / F9CHLC) VH: QIQLVQSGPELKKPGETVKISCKASGYTFTNYGMNWVKQAPGKGLKWMGWINTRNGKSTYVDDFKGRFAFSLESSASTANLQIDNLKDEDTATYFCTREGNMDGYFPFTYWGQGTLVTVSA VL: QIVLSQSPAILSASPGEKVTMTCRASSSVNYMHWYQQKPGSSPKPWIYATSNLASGVPARFSGSGSGTSYSLTISRVEAEDAATYYCQQWSINPRTFGGGTKLEIK
8.89
